Where do these numbers come from? They come from ChEMBL document CHEMBL1156597.

Test system: HT-29
Assay: Cytotoxicity against human HT29 cells after 48 hrs by SRB assay
Format: functional, cell-based
Conditions: Homo sapiens, HT-29, 48 h; read-out: LC50 (the source's name)
Property measured: CC50 (nM)
# unit: nM | format: bare number

Problem: Give the measured CC50 of CC[C@@H](C)[C@@H](NC(=O)[C@H](CCCN)NC(=O)[C@H]1CCCN1C(=O)[C@H](NC(=O)[C@@H](NC(=O)[C@@H](NC(=O)[C@H](NC(=O)CCCC(C)C)C(C)C)[C@@H](C)O)C(C)C)C(C)C)C(=O)N[C@H]1C(=O)N[C@H]([C@H](C)CC)C(=O)N[C@H](C(C)C)C(=O)N[C@@H](Cc2ccccc2)C(=O)NC(C)(C)C(=O)N[C@@H](C(C)C)C(=O)O[C@H]1C .
Result: 743

----------
Tested on: A549
Assay: Cytotoxicity against human A549 cells after 48 hrs by SRB assay
Assay type: functional, cell-based
Details: Homo sapiens, A549, 48 h
Property measured: LC50 (µM)
# unit: µM | format: bare number

[[record]]
molecule = "C/C=C1\\NC(=O)[C@H](Cc2ccccc2)NC(=O)[C@@H](C(C)C)NC(=O)[C@@H]([C@H](C)CC)NC(=O)[C@H](NC(=O)[C@H](NC(=O)[C@H](CCCN)NC(=O)[C@H]2CCCN2C(=O)[C@H](NC(=O)[C@@H](NC(=O)[C@@H](NC(=O)[C@H](NC(=O)CCCC(C)C)C(C)C)[C@@H](C)O)C(C)C)C(C)C)[C@H](C)CC)[C@H](C)OC(=O)[C@H](C(C)C)NC1=O [KAHALALIDE F]"
recorded_value = 4.52

[[record]]
molecule = "C/C=C1\\NC(=O)[C@H](Cc2ccccc2)NC(=O)[C@@H](C(C)C)NC(=O)[C@@H]([C@H](C)CC)NC(=O)[C@H](NC(=O)[C@H](NC(=O)[C@H](CCCN)NC(=O)[C@H]2CCCN2C(=O)[C@H](NC(=O)CCCCCCCCCCCCC)C(C)C)[C@H](C)CC)[C@H](C)OC(=O)[C@H](C(C)C)NC1=O"
recorded_value = 2.65


# evaluate next
Problem: Give the measured LC50 of C/C=C1\NC(=O)[C@H](Cc2ccccc2)NC(=O)[C@@H](C(C)C)NC(=O)[C@@H]([C@H](C)CC)NC(=O)[C@H](NC(=O)[C@H](NC(=O)[C@H](CCCNC(=O)/C=C/CCC)NC(=O)[C@H]2CCCN2C(=O)[C@H](NC(=O)[C@@H](NC(=O)[C@@H](NC(=O)[C@H](NC(=O)CCCC(C)C)C(C)C)[C@@H](C)O)C(C)C)C(C)C)[C@H](C)CC)[C@H](C)OC(=O)[C@H](C(C)C)NC1=O .
Result: 1.09

----------
System: LoVo
Test: Cytotoxicity against human doxorubicin resistant LoVo cells after 48 hrs by SRB assay
Type: functional
Measured TGI of individual entries
# unit: nM | format: bare number

[[record]]
compound_structure = "C/C=C1\\NC(=O)[C@H](Cc2ccc([N+](=O)[O-])cc2)NC(=O)[C@@H](C(C)C)NC(=O)[C@@H]([C@H](C)CC)NC(=O)[C@H](NC(=O)[C@H](NC(=O)[C@H](CCCN)NC(=O)[C@H]2CCCN2C(=O)[C@H](NC(=O)[C@@H](NC(=O)[C@@H](NC(=O)[C@H](NC(=O)CC[C@@H](C)CC)C(C)C)[C@@H](C)O)C(C)C)C(C)C)[C@H](C)CC)[C@H](C)OC(=O)[C@H](C(C)C)NC1=O"
unit_abbreviation = "nM"
recorded_value = 141


Problem: Give the measured TGI of C/C=C1\NC(=O)[C@H](Cc2ccccc2)NC(=O)[C@@H](C(C)C)NC(=O)[C@@H]([C@H](C)CC)NC(=O)[C@H](NC(=O)[C@H](NC(=O)[C@H](CCCNC(=O)CCOCCOCCNC(=O)OCC2c3ccccc3-c3ccccc32)NC(=O)[C@H]2CCCN2C(=O)[C@H](NC(=O)[C@@H](NC(=O)[C@@H](NC(=O)[C@H](NC(=O)CCCC(C)C)C(C)C)[C@@H](C)O)C(C)C)C(C)C)[C@H](C)CC)[C@H](C)OC(=O)[C@H](C(C)C)NC1=O .
Result: 179
